Target: dopamine D2 receptor (Homo sapiens, UniProt P14416)
Sequence (P14416 whole entry): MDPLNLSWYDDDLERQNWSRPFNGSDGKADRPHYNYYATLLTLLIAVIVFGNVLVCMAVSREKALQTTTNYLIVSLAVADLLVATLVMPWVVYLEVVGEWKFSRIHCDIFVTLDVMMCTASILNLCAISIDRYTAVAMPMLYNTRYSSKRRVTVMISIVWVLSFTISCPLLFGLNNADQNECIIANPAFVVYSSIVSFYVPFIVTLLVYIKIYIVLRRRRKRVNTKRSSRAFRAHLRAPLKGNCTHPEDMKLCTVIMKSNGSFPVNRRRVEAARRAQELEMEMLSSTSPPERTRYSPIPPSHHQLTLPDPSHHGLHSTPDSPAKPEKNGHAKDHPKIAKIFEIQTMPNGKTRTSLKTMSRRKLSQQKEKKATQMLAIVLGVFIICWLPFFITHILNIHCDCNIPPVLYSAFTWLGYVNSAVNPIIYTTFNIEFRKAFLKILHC
Experiment: Binding affinity to cloned human dopamine receptors (radioligand displacement), D2
Settings: 1 µM test compound
Consider the following compounds and their measured Affinity to Dopamine Receptors (% Inhibition) D2 readings.
Reply with just the number (in %).

// below: answered compounds
> print(dat)
                               samplesmiles                               assaytarget  observedvalue
1  Fc1ccccc1N1CCN(CCCCc2cc(/C=C/c3ccccc3)no2)CC1  dopamine D2 receptor (Homo sapiens, UniProt P14416)           15.6
2  COc1ccc(-c2cc(CCCN3CCN(c4ccccc4)CC3)on2)c(OC)c1  dopamine D2 receptor (Homo sapiens, UniProt P14416)           10.6
3  C(=C\c1cc(CCCCN2CCN(C(c3ccccc3)c3ccccc3)CC2)on1)/c1ccccc1  dopamine D2 receptor (Homo sapiens, UniProt P14416)            0.0
4  C(=C\c1cc(CCCCN2CCN(c3ccccc3)CC2)on1)/c1ccccc1  dopamine D2 receptor (Homo sapiens, UniProt P14416)           22.2
5  CCOc1ccccc1N1CCN(CCCc2cc(-c3ccc(F)cc3)no2)CC1  dopamine D2 receptor (Homo sapiens, UniProt P14416)           47.9
6  c1ccc(N2CCN(CCCCc3cc(-c4cccs4)no3)CC2)cc1  dopamine D2 receptor (Homo sapiens, UniProt P14416)            6.7
7  CCOc1ccccc1N1CCN(CCCCc2cc(-c3cccs3)no2)CC1  dopamine D2 receptor (Homo sapiens, UniProt P14416)           54.1
8  COc1ccc(-c2cc(CCCCN3CCN(c4ccccc4OC)CC3)on2)cc1OC  dopamine D2 receptor (Homo sapiens, UniProt P14416)             23
9  COc1ccccc1N1CCN(CCCCc2cc(-c3ccc(F)cc3)no2)CC1  dopamine D2 receptor (Homo sapiens, UniProt P14416)           57.3

Let's switch to this compound now.
State Affinity to Dopamine Receptors (% Inhibition) D2 (dopamine D2 receptor (Homo sapiens, UniProt P14416)) of `CCOc1ccccc1N1CCN(CCCCc2cc(-c3ccccc3)no2)CC1` .
29.9

---

Biological target: dopamine D4 receptor (Homo sapiens, UniProt P21917)
Sequence (P21917 whole entry): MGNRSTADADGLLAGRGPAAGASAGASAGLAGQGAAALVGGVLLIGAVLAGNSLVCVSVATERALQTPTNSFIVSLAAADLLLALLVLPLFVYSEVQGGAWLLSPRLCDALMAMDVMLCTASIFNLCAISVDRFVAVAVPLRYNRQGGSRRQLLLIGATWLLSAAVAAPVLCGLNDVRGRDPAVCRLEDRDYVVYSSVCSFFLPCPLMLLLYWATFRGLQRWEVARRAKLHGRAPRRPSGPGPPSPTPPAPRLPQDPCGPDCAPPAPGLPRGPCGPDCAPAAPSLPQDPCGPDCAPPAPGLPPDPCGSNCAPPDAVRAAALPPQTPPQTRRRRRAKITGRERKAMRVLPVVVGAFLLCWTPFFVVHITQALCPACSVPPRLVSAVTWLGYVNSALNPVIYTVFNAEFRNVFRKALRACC
Assay: Binding affinity to cloned human dopamine receptors (radioligand displacement), D4
Conditions: 1 µM test compound
Flag rule - Affinity to Dopamine Receptors (% Inhibition) D4 less than 70% flags 1 (yes); the remaining entries get 0 (no).

Consider the worked cases shown below.
> print(dat)
                                   compound  classassignment
1  COc1ccc(-c2cc(CCCN3CCN(c4ccccc4)CC3)on2)c(OC)c1 [Compound No. 32]           0 (no)
2  CCOc1ccccc1N1CCN(CCCCc2cc(-c3cccs3)no2)CC1 [Compound No. 53]           0 (no)
3  c1ccc(N2CCN(CCCCc3cc(-c4cccs4)no3)CC2)cc1 [Compound No. 33]          1 (yes)
4  CCOc1ccccc1N1CCN(CCCCc2cc(-c3ccccc3)no2)CC1 [Compound No. 54]           0 (no)
5  C(=C\c1cc(CCCCN2CCN(C(c3ccccc3)c3ccccc3)CC2)on1)/c1ccccc1 [Compound No. 29]          1 (yes)
6  Fc1ccccc1N1CCN(CCCCc2cc(/C=C/c3ccccc3)no2)CC1 [Compound No. 46]          1 (yes)
7  COc1ccccc1N1CCN(CCCCc2cc(-c3ccc(F)cc3)no2)CC1 [Compound No. 37]           0 (no)
8  COc1ccc(-c2cc(CCCCN3CCN(c4ccccc4OC)CC3)on2)cc1OC [Compound No. 39]           0 (no)

Now for another entry.
For CCOc1ccccc1N1CCN(CCCc2cc(-c3ccc(F)cc3)no2)CC1 [Compound No. 20] , is the recorded Affinity to Dopamine Receptors (% Inhibition) D4 below the cut-off of 70%?
0 (no)
